Assay: Selectivity ratio of CC50 for human VA13 cells to CC50 for PSMA-positive human 22Rv1 cells
Kind request: treat 0.6 as inclusive, so Selectivity ratio at 0.6 or higher is yes, anything lower is no.

- Structure string: "CC(=O)O[C@H]1C(=O)[C@@]2(C)[C@H]([C@H](OC(=O)c3ccccc3)[C@]3(O)C[C@H](OC(=O)[C@H](OC(=O)CCCc4cn(CCCCCC(=O)N(CCCC[C@H](NC(=O)N[C@@H](CCC(=O)O)C(=O)O)C(=O)O)Cc5ccc(F)cc5)nn4)[C@@H](NC(=O)c4ccccc4)c4ccccc4)C(C)=C1C3(C)C)[C@]1(OC(C)=O)CO[C@@H]1C[C@@H]2O"
  Group: "no"
- Structure string: "CC(=O)O[C@H]1C(=O)[C@@]2(C)[C@H]([C@H](OC(=O)c3ccccc3)[C@]3(O)C[C@H](OC(=O)[C@H](OC(=O)CCCc4cn(CCCCCCCCCCC(=O)N(CCCC[C@H](NC(=O)N[C@@H](CCC(=O)O)C(=O)O)C(=O)O)Cc5ccc(F)cc5)nn4)[C@@H](NC(=O)c4ccccc4)c4ccccc4)C(C)=C1C3(C)C)[C@]1(OC(C)=O)CO[C@@H]1C[C@@H]2O"
  Group: "yes"
- Structure string: "CC(=O)O[C@H]1C(=O)[C@@]2(C)[C@H]([C@H](OC(=O)c3ccccc3)[C@]3(O)C[C@H](OC(=O)[C@H](OC(=O)CCCc4cn(CCCCCC(=O)NCCCC[C@H](NC(=O)N[C@@H](CCC(=O)O)C(=O)O)C(=O)O)nn4)[C@@H](NC(=O)c4ccccc4)c4ccccc4)C(C)=C1C3(C)C)[C@]1(OC(C)=O)CO[C@@H]1C[C@@H]2O"
  Group: "yes"
- Structure string: "CC(=O)O[C@H]1C(=O)[C@@]2(C)[C@H]([C@H](OC(=O)c3ccccc3)[C@]3(O)C[C@H](OC(=O)[C@H](OC(=O)CCCc4cn(CCCCCCCCCCC(=O)NCCCC[C@H](NC(=O)N[C@@H](CCC(=O)O)C(=O)O)C(=O)O)nn4)[C@@H](NC(=O)c4ccccc4)c4ccccc4)C(C)=C1C3(C)C)[C@]1(OC(C)=O)CO[C@@H]1C[C@@H]2O"
  Group: "yes"
